Numbers sourced from paper PMC10110893.

Each record here notes measured IC50.
molecular target: human Cav3.2 (Homo sapiens, UniProt O95180); construct: expressed in transfected cells; host or cells: HEK293 FlpIn T-Rex cells (Invitrogen); experiment: FLIPR calcium flux assay, Cav3.2; assay type: cell-based
Sequence (O95180 whole entry): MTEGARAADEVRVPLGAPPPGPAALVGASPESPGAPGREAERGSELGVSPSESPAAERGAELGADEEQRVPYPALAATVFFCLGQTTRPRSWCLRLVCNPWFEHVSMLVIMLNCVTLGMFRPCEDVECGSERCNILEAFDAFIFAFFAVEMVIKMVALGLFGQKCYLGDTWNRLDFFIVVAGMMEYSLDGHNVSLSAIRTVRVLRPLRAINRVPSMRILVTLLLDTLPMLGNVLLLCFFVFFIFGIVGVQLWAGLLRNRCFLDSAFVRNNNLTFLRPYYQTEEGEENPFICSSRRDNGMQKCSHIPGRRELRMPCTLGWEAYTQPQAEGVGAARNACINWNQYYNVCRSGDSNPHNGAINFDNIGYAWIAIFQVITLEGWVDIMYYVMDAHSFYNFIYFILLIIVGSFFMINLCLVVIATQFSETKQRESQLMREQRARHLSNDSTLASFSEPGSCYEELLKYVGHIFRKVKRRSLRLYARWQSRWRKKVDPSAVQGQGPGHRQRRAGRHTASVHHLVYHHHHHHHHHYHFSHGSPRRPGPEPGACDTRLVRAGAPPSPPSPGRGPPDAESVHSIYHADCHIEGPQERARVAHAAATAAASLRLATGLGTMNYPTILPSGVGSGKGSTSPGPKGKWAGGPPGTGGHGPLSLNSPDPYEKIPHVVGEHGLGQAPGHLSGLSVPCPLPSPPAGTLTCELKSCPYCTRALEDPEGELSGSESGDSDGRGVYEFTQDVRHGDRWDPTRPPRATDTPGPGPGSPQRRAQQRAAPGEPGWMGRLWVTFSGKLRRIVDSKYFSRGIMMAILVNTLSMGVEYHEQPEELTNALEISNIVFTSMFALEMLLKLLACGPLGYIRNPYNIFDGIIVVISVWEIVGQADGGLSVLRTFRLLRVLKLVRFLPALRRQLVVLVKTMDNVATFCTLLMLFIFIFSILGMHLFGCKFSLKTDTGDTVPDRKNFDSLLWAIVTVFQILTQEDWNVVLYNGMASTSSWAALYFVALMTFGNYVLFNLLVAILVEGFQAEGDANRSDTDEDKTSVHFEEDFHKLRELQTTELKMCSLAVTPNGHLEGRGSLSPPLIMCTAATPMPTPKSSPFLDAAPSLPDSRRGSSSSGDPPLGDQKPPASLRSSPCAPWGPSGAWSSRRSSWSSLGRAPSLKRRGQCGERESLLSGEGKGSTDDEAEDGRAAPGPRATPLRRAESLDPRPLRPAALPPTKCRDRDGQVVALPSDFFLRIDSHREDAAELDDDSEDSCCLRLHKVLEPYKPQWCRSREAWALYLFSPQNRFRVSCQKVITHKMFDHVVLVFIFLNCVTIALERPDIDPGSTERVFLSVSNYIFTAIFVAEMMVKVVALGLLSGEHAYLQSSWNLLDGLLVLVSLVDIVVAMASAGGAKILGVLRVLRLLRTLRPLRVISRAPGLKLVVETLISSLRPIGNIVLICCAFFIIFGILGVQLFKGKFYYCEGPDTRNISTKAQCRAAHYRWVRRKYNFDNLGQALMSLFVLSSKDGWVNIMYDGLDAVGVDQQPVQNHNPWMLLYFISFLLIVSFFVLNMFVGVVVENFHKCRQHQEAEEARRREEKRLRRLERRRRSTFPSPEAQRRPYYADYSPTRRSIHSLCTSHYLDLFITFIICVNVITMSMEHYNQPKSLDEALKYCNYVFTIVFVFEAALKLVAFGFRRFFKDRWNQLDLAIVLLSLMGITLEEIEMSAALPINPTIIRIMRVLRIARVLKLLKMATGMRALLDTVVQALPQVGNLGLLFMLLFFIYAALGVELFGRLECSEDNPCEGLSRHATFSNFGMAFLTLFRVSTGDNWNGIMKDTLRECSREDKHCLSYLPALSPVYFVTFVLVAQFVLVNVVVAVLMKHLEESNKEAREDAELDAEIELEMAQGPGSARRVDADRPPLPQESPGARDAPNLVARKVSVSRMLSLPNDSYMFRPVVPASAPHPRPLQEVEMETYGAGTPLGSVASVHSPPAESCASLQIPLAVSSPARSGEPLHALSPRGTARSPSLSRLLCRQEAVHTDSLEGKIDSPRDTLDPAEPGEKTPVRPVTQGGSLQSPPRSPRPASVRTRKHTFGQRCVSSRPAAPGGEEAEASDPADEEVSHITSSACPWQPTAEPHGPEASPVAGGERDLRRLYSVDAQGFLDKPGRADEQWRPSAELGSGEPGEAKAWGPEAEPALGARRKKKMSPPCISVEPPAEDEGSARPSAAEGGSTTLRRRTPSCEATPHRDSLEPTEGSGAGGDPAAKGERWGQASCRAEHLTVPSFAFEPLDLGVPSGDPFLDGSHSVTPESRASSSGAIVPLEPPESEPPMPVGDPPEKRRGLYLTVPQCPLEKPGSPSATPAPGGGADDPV
Quick note: give the figure in µM, leave out the unit.

>>> assay_result("CC(C)(C)OC(=O)N1CCN(C(=O)c2cn(CCCCCF)c3ccccc23)CC1 [SB2193F]")
3.16

Tell me reported IC50 for CCCCCn1cc(C(=O)N2CCN(C(=O)OC(C)(C)C)CC2)c2ccccc21 [SB2193] , tested with human Cav3.2 (Homo sapiens, UniProt O95180). 5.9

---

assay: Pharmacokinetics in mouse plasma and brain after single i.p. injection; type: in vivo; details: both sexes, wildtype F1, mouse, in vivo, ip, 10 mg/kg, mouse plasma, 10 mg/kg i.p.
measured.quantity: AUC (ng·h/mL)
The reply should contain only the number, in ng·h/mL.

What does the data say about its AUC? Entry: CCCCCn1cc(C(=O)N2CCN(C(=O)OC(C)(C)C)CC2)c2ccccc21 [SB2193] 217

---

assay: Pharmacokinetics in mouse plasma and brain after single i.p. injection; format: in vivo; conditions: both sexes, wildtype F1, ip; mouse brain, 10 mg/kg i.p.
A collection of molecules and their measured half-life
Please respond with the number in min and leave the unit unwritten.

>>> assay_result("CCCCCn1cc(C(=O)N2CCN(C(=O)OC(C)(C)C)CC2)c2ccccc21")
28

Would you kindly look at the next entry?
Form field: reported half-life of CC(C)(C)OC(=O)N1CCN(C(=O)c2cn(CCCCCF)c3ccccc23)CC1 [SB2193F] 14

---

target: human Cav3.1 (Homo sapiens); construct: expressed in transfected cells; host or cells: HEK293 FlpIn T-Rex cells (Invitrogen); assay: FLIPR calcium flux assay, Cav3.1; format: cell-based; details: FLIPR calcium flux, HEK293 cells, n = 5–8; read-out: Cav3.1 IC50
Sequence (O43497 whole entry): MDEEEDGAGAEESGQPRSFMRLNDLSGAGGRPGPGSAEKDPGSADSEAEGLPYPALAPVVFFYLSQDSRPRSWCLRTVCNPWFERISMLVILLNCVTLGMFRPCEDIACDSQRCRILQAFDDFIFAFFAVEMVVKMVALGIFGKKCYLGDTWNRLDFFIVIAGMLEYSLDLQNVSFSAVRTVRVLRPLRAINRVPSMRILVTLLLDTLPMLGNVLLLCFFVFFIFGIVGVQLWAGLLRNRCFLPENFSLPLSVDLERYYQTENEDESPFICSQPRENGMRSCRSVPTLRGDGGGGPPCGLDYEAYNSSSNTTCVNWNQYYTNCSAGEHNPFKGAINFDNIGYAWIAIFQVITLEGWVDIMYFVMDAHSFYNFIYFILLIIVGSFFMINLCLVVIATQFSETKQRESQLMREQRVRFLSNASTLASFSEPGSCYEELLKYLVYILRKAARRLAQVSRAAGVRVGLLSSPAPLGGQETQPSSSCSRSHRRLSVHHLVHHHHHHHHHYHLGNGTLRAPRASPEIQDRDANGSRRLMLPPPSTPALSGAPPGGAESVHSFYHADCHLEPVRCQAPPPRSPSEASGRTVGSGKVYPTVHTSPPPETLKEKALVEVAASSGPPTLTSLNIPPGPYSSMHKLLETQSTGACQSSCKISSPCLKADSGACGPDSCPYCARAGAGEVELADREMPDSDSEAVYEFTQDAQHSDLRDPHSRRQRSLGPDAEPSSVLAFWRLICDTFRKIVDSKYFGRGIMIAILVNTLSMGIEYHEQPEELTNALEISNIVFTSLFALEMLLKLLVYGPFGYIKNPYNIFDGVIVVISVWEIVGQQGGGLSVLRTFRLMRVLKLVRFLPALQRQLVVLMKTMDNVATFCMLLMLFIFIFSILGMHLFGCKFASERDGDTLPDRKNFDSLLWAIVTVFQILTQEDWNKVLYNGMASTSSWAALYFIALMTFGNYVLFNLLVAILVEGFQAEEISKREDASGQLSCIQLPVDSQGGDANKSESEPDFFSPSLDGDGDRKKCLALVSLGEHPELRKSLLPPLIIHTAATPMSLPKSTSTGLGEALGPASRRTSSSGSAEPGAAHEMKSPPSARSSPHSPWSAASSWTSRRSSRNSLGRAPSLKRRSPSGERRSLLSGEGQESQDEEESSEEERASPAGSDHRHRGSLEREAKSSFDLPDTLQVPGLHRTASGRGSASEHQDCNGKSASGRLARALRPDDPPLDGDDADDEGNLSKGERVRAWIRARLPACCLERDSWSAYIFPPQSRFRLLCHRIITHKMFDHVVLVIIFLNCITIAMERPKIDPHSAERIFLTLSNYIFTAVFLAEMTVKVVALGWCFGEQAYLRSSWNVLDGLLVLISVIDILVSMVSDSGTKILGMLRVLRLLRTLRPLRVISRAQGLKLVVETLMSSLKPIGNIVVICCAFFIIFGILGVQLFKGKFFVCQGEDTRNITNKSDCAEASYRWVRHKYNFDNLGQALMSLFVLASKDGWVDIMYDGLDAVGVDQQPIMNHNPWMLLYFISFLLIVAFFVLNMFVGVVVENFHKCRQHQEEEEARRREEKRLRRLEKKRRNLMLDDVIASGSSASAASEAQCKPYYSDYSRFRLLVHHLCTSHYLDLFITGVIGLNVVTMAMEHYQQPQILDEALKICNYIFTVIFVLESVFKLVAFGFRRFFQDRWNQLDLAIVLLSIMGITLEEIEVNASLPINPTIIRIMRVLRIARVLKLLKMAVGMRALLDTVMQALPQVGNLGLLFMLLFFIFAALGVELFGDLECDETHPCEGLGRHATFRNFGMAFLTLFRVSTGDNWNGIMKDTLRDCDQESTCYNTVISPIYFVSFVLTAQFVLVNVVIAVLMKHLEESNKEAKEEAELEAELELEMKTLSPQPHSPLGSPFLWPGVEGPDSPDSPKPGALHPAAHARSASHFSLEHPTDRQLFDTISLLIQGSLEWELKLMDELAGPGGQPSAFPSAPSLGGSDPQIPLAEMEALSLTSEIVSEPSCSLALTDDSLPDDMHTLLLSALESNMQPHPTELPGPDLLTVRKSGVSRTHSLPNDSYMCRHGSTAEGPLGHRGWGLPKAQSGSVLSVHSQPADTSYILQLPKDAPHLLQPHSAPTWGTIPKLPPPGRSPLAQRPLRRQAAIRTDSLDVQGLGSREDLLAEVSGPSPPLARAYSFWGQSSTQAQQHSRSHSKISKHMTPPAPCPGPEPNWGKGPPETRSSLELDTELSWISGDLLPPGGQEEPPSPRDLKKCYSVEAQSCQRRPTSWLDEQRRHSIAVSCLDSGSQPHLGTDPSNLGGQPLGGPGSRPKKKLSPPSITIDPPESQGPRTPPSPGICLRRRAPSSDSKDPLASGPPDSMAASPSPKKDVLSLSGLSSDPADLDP
measured.quantity: IC50 (nM)
Return type: number; implicit unit nM.

Entry CC(C)[C@H]1c2ccc(F)cc2CC[C@@]1(CCN(C)CCCc1nc2ccccc2[nH]1)OC(=O)C1CC1 [NNC 55-036, reference compound] has what IC50? 1300

---

Experiment: Pharmacokinetics in mouse plasma and brain after single i.p. injection
Format: in vivo
Settings: both sexes, wildtype F1, mouse, brain, ip, 10 mg/kg, mouse brain, 10 mg/kg i.p.; brain concentration converted assuming density of 1 g/mL
Method: SB2193 and SB2193F were prepared in ethanol-Tween 80%–0.9% saline (1:1:18 ratio) and valproic acid in 0.9% saline. All doses were completely soluble in this vehicle except for the 100 mg/kg SB2193 dose, which was a suspension. […] Quantification was achieved by comparing experimental samples to plasma and brain standards prepared with known concentrations of SB2193 or SB2193F. Samples were quantified against a 7-point standard curve (R ^2 > 0.98 for both analytes). […]
measured.quantity: AUC (ng·h/mL)
Response body: numeric value in ng·h/mL, unit text excluded.

Bench note: what AUC did CC(C)(C)OC(=O)N1CCN(C(=O)c2cn(CCCCCF)c3ccccc23)CC1 [SB2193F] show? 350

---

assay: Pharmacokinetics in mouse plasma and brain after single i.p. injection; type: in vivo; settings: both sexes, wildtype F1, brain/plasma, ip; mouse, 10 mg/kg i.p.; read-out: brain-plasma ratio
measured.quantity: Kp
Give only the figure.

Endpoint output: Kp of CC(C)(C)OC(=O)N1CCN(C(=O)c2cn(CCCCCF)c3ccccc23)CC1 [SB2193F] . Value? 0.48
